Just for reference, ChEMBL document CHEMBL1138515 is where these values come from.

Measured pIC50 accompanies every entry in the list below.
Experiment: Inhibition of HCV1a H77 NS5B assessed as [3H]UTP incorporation into RNA by scintillation counting
Parameters: species or system Hepatitis C virus (isolate H77)
pIC50: −log10 of the molar value.

| compound | pIC50 |
| --- | --- |
| CC(C)(C)CCC1(NCc2ccco2)C(=O)C(C2=NS(=O)(=O)c3cc(NS(C)(=O)=O)ccc3N2)=C(O)c2ccccc21 (configuration not stated) | 7.92 |
| COc1ccc(OC)c(CNC2(CCC(C)(C)C)C(=O)C(C3=NS(=O)(=O)c4cc(NS(C)(=O)=O)ccc4N3)=C(O)c3ccccc32)c1 (configuration not stated) | 8.00 |
| CC(C)(C)CCC1(NCc2cccnc2)C(=O)C(C2=NS(=O)(=O)c3cc(NS(C)(=O)=O)ccc3N2)=C(O)c2ccccc21 (configuration not stated) | 8.00 |
| CON(C(C)=O)C1(CCC(C)C)C(=O)C(C2=NS(=O)(=O)c3cc(NS(C)(=O)=O)ccc3N2)=C(O)c2ccccc21 (configuration not stated) | 7.08 |
| Cc1cc(C)c(CNC2(CCC(C)(C)C)C(=O)C(C3=NS(=O)(=O)c4cc(NS(C)(=O)=O)ccc4N3)=C(O)c3ccccc32)c(C)c1 (configuration not stated) | 7.48 |
| CC(C)(C)CCC1(NCc2ccc(-c3ccccc3)cc2)C(=O)C(C2=NS(=O)(=O)c3cc(NS(C)(=O)=O)ccc3N2)=C(O)c2ccccc21 (configuration not stated) | 7.57 |
| CC(C)(C)CCC1(NCc2ccc3ccccc3c2)C(=O)C(C2=NS(=O)(=O)c3cc(NS(C)(=O)=O)ccc3N2)=C(O)c2ccccc21 (configuration not stated) | 7.64 |

###

AUC(0-inf) overview
Experiment: AUC (0 to infinity) in Sprague-Dawley rat at 5 mg/kg, po
Type: ADME, organism-based
Parameters: time infinity, dose 5 mg/kg, route oral
Settings: plasma

| compound | AUC(0-inf) [ng·h/mL] |
| --- | --- |
| CC(C)(C)CCC1(NCc2ccccc2N)C(=O)C(C2=NS(=O)(=O)c3cc(NS(C)(=O)=O)ccc3N2)=C(O)c2ccccc21 (stereo not drawn) | 410 |
| CC(C)CC[C@@]1(NCc2ccccc2)C(=O)C(C2=NS(=O)(=O)c3cc(NS(C)(=O)=O)ccc3N2)=C(O)c2ccccc21 | 600 |
| CC(C)(C)CCC1(NCc2ccc3ccccc3c2)C(=O)C(C2=NS(=O)(=O)c3cc(NS(C)(=O)=O)ccc3N2)=C(O)c2ccccc21 (stereo not drawn) | 1020 |
| Cc1cccc(C)c1CNC1(CCC(C)(C)C)C(=O)C(C2=NS(=O)(=O)c3cc(NS(C)(=O)=O)ccc3N2)=C(O)c2ccccc21 (stereo not drawn) | 3500 |
| CON[C@]1(CCC(C)C)C(=O)C(C2=NS(=O)(=O)c3cc(NS(C)(=O)=O)ccc3N2)=C(O)c2ccccc21 | 350 |
| Cc1cccc(CNC2(CCC(C)(C)C)C(=O)C(C3=NS(=O)(=O)c4cc(NS(C)(=O)=O)ccc4N3)=C(O)c3ccccc32)n1 (stereo not drawn) | 1340 |
| Cc1cccc(C)c1CN[C@]1(CCC(C)(C)C)C(=O)C(C2=NS(=O)(=O)c3cc(NS(C)(=O)=O)ccc3N2)=C(O)c2ccccc21 | 4210 |
| COc1ccccc1CNC1(CCC(C)(C)C)C(=O)C(C2=NS(=O)(=O)c3cc(NS(C)(=O)=O)ccc3N2)=C(O)c2ccccc21 (stereo not drawn) | 1600 |
